# experimental_protocol: fluorescence interference in NS3h assay format, artefact control for HCV NS3 helicase inhibitor project, biochemical, NIH Clinical Collection (AID 743272);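 further: HCV NS3 helicase with a Cy5 labelled single stranded DNA probe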
# protocol_conditions: fluorescence interference counterscreen, stronger effect = lower value
fluorescence ratio for assorted molecules
Answer field: number only, no words.

Record excerpt, results attached:
# molecule, recorded_measurement
data = [
    ("c1ccc2c(CC3=NCCN3)cccc2c1", 1.02),
    ("NC(=O)c1cnccn1", 0.96),
    ("CNCCCC12CCC(c3ccccc31)c1ccccc12", 0.83),
    ("CC(N=C(NC#N)Nc1ccncc1)C(C)(C)C (stereo not drawn)", 0.95),
    ("Nc1c2c(nc3ccccc13)CCCC2", 0.85),
]

Report measured fluorescence ratio; entry is CN(C)C(=O)Oc1ccc[n+](C)c1
0.97

Report measured fluorescence ratio; entry is C[C@]12C=CC(=O)C=C1CC[C@@H]1[C@@H]2[C@@H](O)C[C@@]2(C)[C@H]1CC[C@]2(O)C(=O)CO
0.96

Report measured fluorescence ratio; entry is OC(CCN1CCCCC1)(c1ccccc1)C1CCCCC1 (stereo not drawn)
0.95

Report measured fluorescence ratio; entry is CC(COc1ccccc1)NC(C)C(O)c1ccc(O)cc1 (stereo not drawn)
0.91

Report measured fluorescence ratio; entry is O=C1c2c(O)ccc(O)c2C(=O)c2c(NCCNCCO)ccc(NCCNCCO)c21
0.92

Report measured fluorescence ratio; entry is CC(=O)OCC[N+](C)(C)C
1.01

Report measured fluorescence ratio; entry is Oc1ccc(/C=C/c2cc(O)cc(O)c2)cc1
0.93

Report measured fluorescence ratio; entry is CN(C)CCOC(C)(c1ccccc1)c1ccccn1 (stereo not drawn)
1.06

---

z-score for assorted compounds
# experimental_protocol: kinase inhibitors altering Pseudomonas killing of worms, whole organism (AID 651566);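 further: tested at 14 µM; sign flipped so higher z means a lower ratio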
# protocol_conditions: C. elegans killed by P. aeruginosa, survival ratio
Answer field: number only, no words.

# molecule, z-score
rows = [
    ("N#Cc1c(NC(=O)c2ccc(F)c3ccccc23)sc2c1CCCC2", 1.47),
    ("Cn1cc(/C=C2\\C(=O)Nc3cccnc32)c2ccccc21", 0.915),
    ("CCn1c(-c2nonc2N)nc2cnc(Oc3cccc(NC(=O)c4ccc(OCCN5CCOCC5)cc4)c3)cc21", 0.625),
]

Report measured z-score; entry is COc1c(C(N)=O)cc(-c2ccc(Cl)cc2)cc1-c1ccc(S(N)(=O)=O)cc1
-0.43

Report measured z-score; entry is CN(c1ccc(NC(=O)Nc2c(Cl)cccc2Cl)cc1)c1ccnc(Nc2cccc(CS(C)(=O)=O)c2)n1
0.545

Report measured z-score; entry is C[C@@H](Oc1cc(-n2cnc3ccc(OC4CCN(C)CC4)cc32)sc1C(N)=O)c1ccccc1Cl
-0.3

Report measured z-score; entry is O=C1NC(=O)C(c2cccc([N+](=O)[O-])c2)=C1Nc1cc(Cl)c(O)c(Cl)c1
0.045

Report measured z-score; entry is Fc1ccc(-c2ncn(C3CCNCC3)c2-c2ccnc(Oc3ccc(F)c(F)c3)n2)cc1
0.595

Report measured z-score; entry is O=C(Nc1n[nH]c2cc(-c3cc(F)ccc3F)ccc12)C1CC1
-0.655

---

# Test system: F380Y/beta1
# experimental_protocol: modulators of BK channel variants, profiling panel, selectivity assay, cell-based, U2OS BacMam, thallium flux, beta subunits (AID 1259406);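 further: initial slope of Thallos dye fluorescence rise after thallium is added; log ratio against the mean of 0.3% DMSO vehicle wells on the same plate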
# protocol_conditions: at 30 µM
property_name: log fold change Tl+ flux
Answer field: number only, no words.

Record excerpt, results attached:
# compound, property_name, recorded_measurement
data = [
    ("Nc1ccc(S(=O)(=O)c2ccc(N)cc2)cc1", "log fold change Tl+ flux", -0.00845),
    ("O=C(CCCN1CC=C(n2c(=O)[nH]c3ccccc32)CC1)c1ccc(F)cc1", "log fold change Tl+ flux", -0.0432),
    ("NS(=O)(=O)c1cc2c(cc1Cl)NC=NS2(=O)=O", "log fold change Tl+ flux", 0.0165),
    ("CCc1nc(N)nc(N)c1-c1ccc(Cl)cc1", "log fold change Tl+ flux", -0.116),
    ("NCC(=O)CCC(=O)O", "log fold change Tl+ flux", -0.00533),
    ("CCc1cccc2c3c([nH]c12)C(CC)(CC(=O)O)OCC3 (stereo unspecified)", "log fold change Tl+ flux", 0.0385),
    ("CC1COc2c(N3CCN(C)CC3)c(F)cc3c(=O)c(C(=O)O)cn1c23 (stereo unspecified)", "log fold change Tl+ flux", -0.00501),
    ("C[C@@H](O)[C@H]1C(=O)N2C(C(=O)O)=C(S[C@@H]3CN[C@H](C(=O)N(C)C)C3)[C@H](C)[C@H]12", "log fold change Tl+ flux", 0.00288),
    ("c1ccc(CC2=NCCN2)cc1", "log fold change Tl+ flux", 0.0105),
    ("COc1ccccc1OCC(O)COC(N)=O (stereo unspecified)", "log fold change Tl+ flux", 0.0402),
]

Could you now look at the following compound, please?
Report measured log fold change Tl+ flux; entry is COCCOC(=O)C1=C(C)NC(C)=C(C(=O)OC(C)C)C1c1cccc([N+](=O)[O-])c1 (stereo unspecified)
0.0464
